Quick reference: pKi of the listed items.
- tested.system: M2 muscarinic receptor (Rattus norvegicus)
- Construct: Submandibular glands and heart were isolated and placed in ice cold homogenising buffer
- Sequence (P10980 1-466): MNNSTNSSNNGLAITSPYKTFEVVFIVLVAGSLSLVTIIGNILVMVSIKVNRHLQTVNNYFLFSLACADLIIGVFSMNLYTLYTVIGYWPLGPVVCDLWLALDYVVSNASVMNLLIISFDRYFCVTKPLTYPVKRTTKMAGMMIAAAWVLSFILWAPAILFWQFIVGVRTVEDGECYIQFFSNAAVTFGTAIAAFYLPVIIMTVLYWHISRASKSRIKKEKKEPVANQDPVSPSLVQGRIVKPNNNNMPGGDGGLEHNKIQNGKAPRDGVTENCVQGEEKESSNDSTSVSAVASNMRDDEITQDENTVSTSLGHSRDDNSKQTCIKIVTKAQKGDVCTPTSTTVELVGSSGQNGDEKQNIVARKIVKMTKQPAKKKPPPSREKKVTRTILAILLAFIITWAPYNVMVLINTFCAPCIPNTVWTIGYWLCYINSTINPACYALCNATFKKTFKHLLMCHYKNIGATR
- measurement.protocol: biochemical
- details: Receptor Binding Assay M2 pKi
Where a name gives a salt, the structure may show the parent alone.
Here pKi is given on a logarithmic scale as minus log10 of the concentration in mol/L.

The examples below pair each entry with its known result.
>>> measured("O=C(NC[C@@H]1[C@H]2CN(Cc3ccccc3)C[C@@H]12)C(O)(c1ccccc1)C1CCC1 (stereo partly shown) [Compound No. 37]")
7.24
>>> measured("O=C(NCC1C2CN(Cc3ccccc3)CC12)C(O)(c1ccccc1)C1CCCC1 (stereo not shown) [Compound No. 34]")
7.22
>>> measured("CC(C)=CCN1C[C@@H]2[C@@H](CNC(=O)C(O)(c3ccccc3)C3CCCCC3)[C@@H]2C1 (stereo partly shown) [Compound No. 39]")
7.79
>>> measured("CC(NC(=O)C(O)(c1ccccc1)c1ccccc1)[C@H]1[C@@H]2CN(Cc3ccccc3)C[C@@H]21 (stereo partly shown) [Compound No. 23]")
6.23
>>> measured("O=C(NCC1C2CN(Cc3ccccc3)CC12)C(O)(c1ccccc1)C1CCCC1 (stereo not shown) [Compound No. 61]")
7.36
>>> measured("O=C(NC[C@@H]1[C@H]2CN(Cc3ccccc3)C[C@@H]12)C(O)(c1ccccc1)C1CC1 (stereo partly shown) [Compound No. 38]")
6.37
>>> measured("O=C(NCC1C2CN(Cc3ccccc3)CC12)C(O)(c1ccccc1)C1CCCC1 (stereo not shown) [Compound No. 60, hydrochloride salt]")
7.31

Moving on to another compound below.
Item: CC(C)=CCCN1C[C@@H]2[C@@H](CNC(=O)C(O)(c3ccccc3)C3CCCCC3)[C@@H]2C1 (stereo partly shown) [Compound No. 15] | pKi: 6.59
